Give z-score for every item shown.
test.details: E. coli growth modulation, two-sided OD650, primary screen, E. coli filamentation project, strain DRC41, 24 h (AID 1093);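 also: MC1000 strain lacking acrAB efflux and sulA so SOS filamentation is blocked; test concentration not given here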
conditions.used: OD650, 24 h, higher = more signal, called active from +8 up or from −8 down
Answers are plain numbers.

The examples below pair each entry with its known result.
{"compound": "COC(=O)[C@H](C)NC(=O)CCC1CC(OC(=O)NCCc2ccc(F)cc2)CC2(CCCC(COC(=O)NCCC(C)C)O2)O1 (stereo not given in full)", "z-score": -0.641}
{"compound": "C[C@H]1Cc2c(COc3ccccc3)nc3c(c2CO1)CN(CCOc1ccccc1)CC3", "z-score": 1.11}

Would you be so kind as to report z-score for each listed record?
1. O=c1n(-c2ccccc2)c(=O)n2n1CC[C@@H]1C(=NOCc3ccccc3)[C@H]3O[C@H]3[C@@H](O)[C@@H]12
2. COc1ccc(O[C@H]2C=C[C@@H](c3ccccc3)O[C@@H]2COC(=O)CCC(C)=NOC[C@@H](O)[C@H]2O[C@@H]3OC(C)(C)O[C@@H]3[C@H]2O)cc1
3. COC(=O)[C@H](C)NC(=O)CCC1CC(OC(=O)NCc2cccc3ccccc23)CC2(CCCC(COC(=O)NCC(c3ccccc3)c3ccccc3)O2)O1 (stereo not given in full)
4. O=C1[C@H]2[C@H]3[C@H](O)[C@H](O)CC(=NOCc4ccccc4)[C@@H]3CC[C@H]2C(=O)N1c1ccc(F)cc1F
5. COC(=O)CC=C[C@@H](C)[C@@H](C=NOC[C@H]1O[C@H](c2ccccc2)C=C[C@@H]1Oc1ccc(OC)cc1)OC
6. CO[C@H]1COC(=O)[C@@H](C)COC(=O)[C@H](COCc2ccccc2)NC(=O)CC=C[C@H]1C
7. C=CC[C@@H]1C=C[C@H](ON=C2[C@H]3CCn4c(=O)n(-c5ccccc5)c(=O)n4[C@H]3[C@H](O)[C@@H]3O[C@H]23)[C@@H](CO)O1

result:
-0.619
0.875
0.0609
-0.778
-0.19
0.456
0.607

Here are 6 compounds. What values of z-score were reported for them?
1. CO[C@@H]1C=CCC(=O)N[C@@H](C)C(=O)OC[C@@H](OC)[C@H](C)CCCC(=O)OC[C@H]1C
2. COc1cc(O)c(C(=O)C=Cc2ccc3c(c2)OCO3)c(OC)c1
3. CCOC(=O)[C@H](CC(C)C)NC(=O)CCC1CC(OC(=O)NCc2ccc3c(c2)OCO3)CC2(CCCC(COC(=O)NCc3cccc(C(F)(F)F)c3)O2)O1 (stereo not given in full)
4. CCOC(=O)NN=C1C[C@@H](O)[C@@H](O)[C@@H]2[C@@H]3C(=O)N(c4cccc(Oc5ccccc5)c4)C(=O)[C@@H]3CC[C@H]12
5. CON=CC[C@@H]1C=C[C@H](OC(C)=O)[C@@H](COC(C)=O)O1
6. C=CC[C@@H]1C=C[C@H](ON=C(C)CCC(=O)OC[C@H]2O[C@H](C#Cc3ccccc3)C=C[C@@H]2Oc2ccc(C)cc2)[C@@H](CO)O1

result:
1. 0.976
2. 0.75
3. -0.772
4. -0.998
5. -0.0614
6. 0.943

* * *

system.name: Calmodulin-1 (Homo sapiens)
test.details: calcium-bound CALM1 binders on microarrays, profiling panel, artefact control for SMM control-protein annotation, biochemical, small-molecule microarray, Cy5-labelled CALM1, plus calcium (AID 1112);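 also: score merges spot fluorescence with signal to noise from triplicate slides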
conditions.used: Cy5-CALM1 binding fluorescence, higher = more signal
Tag: satisfied if measured composite z-score is not below -0.6, not satisfied if it is.

{"molecule": "O=C1C[C@@H](O)[C@@H](O)[C@@H]2[C@@H]3C(=O)N(c4cccc(Oc5ccccc5)c4)C(=O)[C@@H]3CC[C@H]12", "qualitative.label": "satisfied"}
{"molecule": "COc1ccc(O[C@H]2C=C[C@@H](c3ccccc3)O[C@@H]2CON=C(C)CCN2CCc3nc(-c4ccccc4)c(-c4ccccc4)cc3C2)cc1", "qualitative.label": "satisfied"}

Could you now look at the following molecule, please?
query: Test whether the molecule CO[C@H]1COC(=O)CC=C[C@H](C)COC(=O)[C@@H](C)NC(=O)CC=C[C@@H]1C records composite z-score of -0.6 or higher.
result: not satisfied

* * *

Test system: Human papillomavirus type 1a E7 protein (residues 1-88)
test.details: HPV1a E7 small-molecule binders, primary screen, biochemical, small-molecule microarray, residues 1-88, 635 nm (AID 1129)
conditions.used: small-molecule microarray binding, fluorescence 635 nm; higher = more signal
Lab note: compare composite z-score against 0.06. Equal or greater, write true (1). Smaller, write false (0).

{"compound": "Cc1cc2c(c(=O)o1)[C@@H](O)[C@H]1O[C@H]1C2=O", "system.name": "Human papillomavirus type 1a E7 protein (residues 1-88)", "qualitative.label": "true (1)"}
{"compound": "CCOC(=O)[C@H](CC(C)C)NC(=O)CCC1CC(OC(=O)NCc2ccc3c(c2)OCO3)CC2(CCCC(COC(=O)NCc3cccc(C(F)(F)F)c3)O2)O1 (stereo partly specified)", "system.name": "Human papillomavirus type 1a E7 protein (residues 1-88)", "qualitative.label": "true (1)"}
{"compound": "CCCCc1nc2c(c3c1C[C@H](C)OC3)CN(CCOc1ccccc1)CC2", "system.name": "Human papillomavirus type 1a E7 protein (residues 1-88)", "qualitative.label": "true (1)"}
{"compound": "C=Cc1ccc([C@H]2N[C@H](C(=O)O)CC[C@@H]2C)cc1", "system.name": "Human papillomavirus type 1a E7 protein (residues 1-88)", "qualitative.label": "false (0)"}
{"compound": "CCOC(=O)[C@H](Cc1ccccc1)NC(=O)CCC1CC(OC(=O)NCc2cccc3ccccc23)CC2(CCCC(COC(=O)NCc3ccccc3)O2)O1 (stereo partly specified)", "system.name": "Human papillomavirus type 1a E7 protein (residues 1-88)", "qualitative.label": "true (1)"}
{"compound": "COCCNC(=O)OCC1CCCC2(CC(OC(=O)NCc3ccc4c(c3)OCO4)CC(CCC(=O)N[C@@H](C)C(=O)OC)O2)O1 (stereo partly specified)", "system.name": "Human papillomavirus type 1a E7 protein (residues 1-88)", "qualitative.label": "true (1)"}
{"compound": "CO[C@H]1COC(=O)[C@H](C)NC(=O)[C@@H](C)COC(=O)[C@H]2CCCN2C(=O)CC=C[C@H]1C", "system.name": "Human papillomavirus type 1a E7 protein (residues 1-88)", "qualitative.label": "true (1)"}
{"compound": "O=c1n(Cc2cc3c(cc2Cl)OCO3)c(=O)n2n1CC[C@@H]1C(=NOCc3ccccc3)[C@H]3O[C@H]3[C@@H](O)[C@@H]12", "system.name": "Human papillomavirus type 1a E7 protein (residues 1-88)", "qualitative.label": "true (1)"}

query: Could you please find out whether CO[C@@H]1COC(=O)CC=C[C@@H](C)[C@@H]2C=C[C@H](O)[C@@H](COC(=O)CC=C[C@H]1C)O2 has composite z-score that meets 0.06 or exceeds it?
result: false (0)

query: Next up: O=C(NN=C1C[C@@H](O)[C@@H](O)[C@@H]2[C@@H]3C(=O)N(Cc4ccccc4)C(=O)[C@@H]3CC[C@@H]12)OCc1ccccc1
result: false (0)

query: // query: COCOc1ccc(Br)cc1C(=O)[C@@H]1O[C@H]1c1cccc(OC)c1
result: true (1)

query: Another compound to check: CCOC(=O)NN=C1C[C@@H](O)[C@@H](O)[C@@H]2[C@@H]3C(=O)N(Cc4ccccc4)C(=O)[C@@H]3CC[C@H]12
result: false (0)

query: Please do the same for CC(=O)OC[C@H]1O[C@@H](ON=C(C)CCN2CCCc3nc(C)c(C)cc32)[C@H](OC(C)=O)[C@@H](OC(C)=O)[C@@H]1OC(C)=O as well.
result: true (1)

query: Field entry: COc1ccc(COC(=O)NN=C2C[C@@H](O)[C@@H](O)[C@@H]3[C@@H]4C(=O)N(Cc5ccccc5)C(=O)[C@@H]4CC[C@H]23)cc1
result: false (0)

query: Also C#CCCCON=C1[C@H]2CCn3c(=O)n(C)c(=O)n3[C@H]2[C@H](O)[C@@H]2O[C@H]12 , if possible.
result: true (1)

query: Now the same for CC(C)CON=C1[C@H]2CCn3c(=O)n(Cc4cc5c(cc4Cl)OCO5)c(=O)n3[C@H]2[C@H](O)[C@@H]2O[C@H]12
result: true (1)

query: Ok, now CCOC(=O)[C@H](Cc1ccccc1)NC(=O)CCC1CC(OC(=O)NCCc2ccc(F)cc2)CC2(CCCC(COC(=O)NCc3ccccc3)O2)O1 (stereo partly specified)
result: true (1)

query: Input CC(CCN1CCc2nc(-c3ccccc3)c(-c3ccccc3)cc2C1)=NOC[C@@H](O)COCc1ccco1
result: true (1)

query: Could you do the same for CCOC(=O)NN=C1C[C@@H](O)[C@@H](O)[C@@H]2[C@@H]3C(=O)N(c4ccc(F)cc4F)C(=O)[C@@H]3CC[C@@H]12 , please?
result: true (1)

query: Next entry: CO[C@H]1COC(=O)[C@@H]2CCCN2C(=O)CC=C[C@@H](C)[C@H](OC)COC(=O)[C@@H](OCc2ccccc2)C=C[C@@H]1C
result: false (0)

query: Try the compound CC=CC1=C(CO)C(=O)[C@@H]2O[C@@H]2C1=O
result: false (0)
